- System: clinical MDR Staphylococcus epidermidis isolates
- experiment-summary: MIC, broth microdilution, 81 clinical MDR strains
- Type: cell-based
- test-context: Staphylococcus epidermidis, clinical strain 79 (Table S2); read-out: MIC
value-type: log10 MIC (log10 of the value in µg/mL)

INSERT INTO results (molecule, endpoint_value) VALUES
  ('O=S(=O)(NC1CCN(CCC(Oc2ccc(C(F)(F)F)cc2)c2cccs2)CC1)c1cccc(Br)c1 (stereo not drawn)', 1.70),
  ('CC(=O)NC[C@H]1CN(c2ccc(N3CCOCC3)c(F)c2)C(=O)O1 [linezolid, reference compound]', 1.10),
  ('O=S(=O)(NC1CCN(CCC(Oc2ccc(C(F)(F)F)cc2)c2cccs2)CC1)c1cccc(C(F)(F)F)c1 (stereo not drawn)', 1.70),
  ('O=S(=O)(NC1CCN(CCC(Oc2ccc(C(F)(F)F)cc2)c2ccccc2)CC1)c1cccc(Cl)c1 (stereo not drawn)', 0.49),
  ('O=C(Nc1cccc(Cl)c1)NC1CCN(CCC(Oc2ccc(C(F)(F)F)cc2)c2cccs2)CC1 (stereo not drawn)', -0.40),
  ('O=S(=O)(NC1CCN(CCC(Oc2ccc(C(F)(F)F)cc2)c2cccs2)CC1)c1cccc(Cl)c1 (stereo not drawn)', 0.80);

====

- Test system: biofilm-producing Staphylococcus epidermidis strains
- experiment-summary: Inhibition of biofilm formation (MBIC, resazurin)
- Type: cell-based
- test-context: clinical strain 67 (Table S4)
value-type: MBIC (µg/mL)

INSERT INTO results (molecule, system, endpoint_value) VALUES
  ('O=S(=O)(NC1CCN(CCC(Oc2ccc(C(F)(F)F)cc2)c2ccccc2)CC1)c1cccc(Cl)c1 (stereo not shown) [Compound 12]', 'biofilm-producing Staphylococcus epidermidis strains', 125),
  ('O=S(=O)(NC1CCN(CCC(Oc2ccc(C(F)(F)F)cc2)c2cccs2)CC1)c1cccc(Cl)c1 (stereo not shown) [Compound 14]', 'biofilm-producing Staphylococcus epidermidis strains', 125),
  ('O=C(Nc1cccc(Cl)c1)NC1CCN(CCC(Oc2ccc(C(F)(F)F)cc2)c2cccs2)CC1 (stereo not shown) [Compound 25]', 'biofilm-producing Staphylococcus epidermidis strains', 31.25),
  ('CC(=O)NC[C@H]1CN(c2ccc(N3CCOCC3)c(F)c2)C(=O)O1 [linezolid, reference compound]', 'biofilm-producing Staphylococcus epidermidis strains', 50);

====

- Test system: clinical MDR Staphylococcus epidermidis isolates
- experiment-summary: MIC, broth microdilution, 81 clinical MDR strains
- Assay type: cell-based
- test-context: Staphylococcus epidermidis, clinical strain 67 (Table S2); read-out: MIC
value-type: MIC (µg/mL)

INSERT INTO measurements (compound, unit_abbrev, endpoint_value) VALUES
  ('O=S(=O)(NC1CCN(CCC(Oc2ccc(C(F)(F)F)cc2)c2ccccc2)CC1)c1cccc(Cl)c1 (stereo not drawn)', 'µg/mL', 50),
  ('O=S(=O)(NC1CCN(CCC(Oc2ccc(C(F)(F)F)cc2)c2cccs2)CC1)c1cccc(C(F)(F)F)c1 (stereo not drawn)', 'µg/mL', 50),
  ('O=S(=O)(NC1CCN(CCC(Oc2ccc(C(F)(F)F)cc2)c2cccs2)CC1)c1cccc(Br)c1 (stereo not drawn)', 'µg/mL', 50),
  ('CC(=O)NC[C@H]1CN(c2ccc(N3CCOCC3)c(F)c2)C(=O)O1 [linezolid, reference compound]', 'µg/mL', 1.6),
  ('O=S(=O)(NC1CCN(CCC(Oc2ccc(C(F)(F)F)cc2)c2cccs2)CC1)c1cccc(Cl)c1 (stereo not drawn)', 'µg/mL', 50),
  ('O=C(Nc1cccc(Cl)c1)NC1CCN(CCC(Oc2ccc(C(F)(F)F)cc2)c2cccs2)CC1 (stereo not drawn)', 'µg/mL', 3.12);
